These data points were gathered from PubChem BioAssay AID1963840.

Measured viability, T/C, listed per entry for reference.
Tested on: 695427-040-R-J1-PDC complex spheroid viability
Assay: Anticancer human tumor 695427-040-R-J1-PDC patient-derived colon adenocarcinoma cell line growth inhibition [POLQ]
Conditions: second compound 3.16 µM; first compound 0.0316 µM; active compounds read low
Procedure: Multicellular complex tumor spheroid response to Polymerase (POL) inhibitors (novobiocin, ART-558, RP6685) in combination with a variety of drugs and investigational agents in selected tumor cell lines The POL inhibitors (novobiocin, ART-558, and RP6685) were evaluated both individually and in combination with standard of care and investigational anticancer small molecules within a complex spheroid model of solid tumors. . […]
A number alone suffices; assume %.

Recorded results for 4 compounds are shown here.
>  <compound>
C#Cc1c(F)ccc2cc(O)cc(-c3ncc4c(N5CC6CCC(C5)N6)nc(OCC56CCCN5CC(F)C6)nc4c3F)c12 (stereo not given) + Nc1ccc(C#CCN(C(=O)Cc2ncc(C(F)(F)F)cc2C(F)(F)F)c2ccc(F)cc2)nn1

>  <result_units>
%

>  <meas_value>
94.5

$$$$
>  <compound>
CC[C@@]1(O)C(=O)OCc2c1cc1n(c2=O)Cc2cc3c(CN(C)C)c(O)ccc3nc2-1 + Nc1ccc(C#CCN(C(=O)Cc2ncc(C(F)(F)F)cc2C(F)(F)F)c2ccc(F)cc2)nn1

>  <result_units>
%

>  <meas_value>
114

$$$$
>  <compound>
CC1COCCN1c1cc(-c2ccnn2C)c2ccnc(-c3ccn[nH]3)c2n1 (stereo not given) + Nc1ccc(C#CCN(C(=O)Cc2ncc(C(F)(F)F)cc2C(F)(F)F)c2ccc(F)cc2)nn1

>  <result_units>
%

>  <meas_value>
102

$$$$
>  <compound>
CC1COCCN1c1cc(-c2ccnn2C)c2ccnc(-c3ccn[nH]3)c2n1 (stereo not given) + COC1C(OC(N)=O)C(O)C(Oc2ccc3c(O)c(NC(=O)c4ccc(O)c(CC=C(C)C)c4)c(=O)oc3c2C)OC1(C)C

>  <result_units>
%

>  <meas_value>
95.8

$$$$

Challenge: Suppose we examine the compound CC(C)n1c(=O)n(C)c2cnc3cc(F)c(-c4ccc(OCCCN5CCCCC5)nc4)cc3c21 + Cc1cccc(N(C)C(=O)C2C(O)CCN2c2nc(C)cc(C(F)(F)F)c2C#N)c1 ; what viability, T/C value has been reported?
Response given: 98.5

---

system: 695427-040-R-J1-PDC complex spheroid viability; experiment: Anticancer human tumor 695427-040-R-J1-PDC cell line growth inhibition [POLQ]; details: second compound 0.0316 µM; first compound 3.16 µM; active compounds read low;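 further: spheroids exposed to compounds for seven days; 100% = DMSO vehicle control viability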
property_label: viability, T/C (%)
Field: numeric (%). Do not append units.

Past entries and their recorded results:
>  <molecule>
CC1COCCN1c1cc(C2(S(C)(=N)=O)CC2)nc(-c2ccnc3[nH]ccc23)n1 (stereo not given) + Nc1ccc(C#CCN(C(=O)Cc2ncc(C(F)(F)F)cc2C(F)(F)F)c2ccc(F)cc2)nn1

>  <meas_value>
99.6

$$$$
>  <molecule>
COc1cc2cc(C(=O)CCC(=O)O)sc2cc1OC + Nc1ccc(C#CCN(C(=O)Cc2ncc(C(F)(F)F)cc2C(F)(F)F)c2ccc(F)cc2)nn1

>  <meas_value>
105

$$$$
>  <molecule>
O=C(Nc1ccc(O)c(NS(=O)(=O)c2ccc(F)cc2)c1)c1ccc(-c2ccccc2)cc1 + Nc1ccc(C#CCN(C(=O)Cc2ncc(C(F)(F)F)cc2C(F)(F)F)c2ccc(F)cc2)nn1

>  <meas_value>
109

$$$$

Challenge: Request the reported viability, T/C associated with CCc1cc2c(N3CCc4c(cc(Cn5ccnc5)cc4-c4cn(C)nc4C(F)(F)F)C3=O)cc(C)nc2c(OC)n1 + Nc1ccc(C#CCN(C(=O)Cc2ncc(C(F)(F)F)cc2C(F)(F)F)c2ccc(F)cc2)nn1
Response given: 113

Challenge: Could you tell me which viability, T/C is on file for CC1COCCN1c1cc(C2(O)CC3CCC(C2)O3)c2cnn(-c3ccn[nH]3)c2n1 (stereo not given) + Nc1ccc(C#CCN(C(=O)Cc2ncc(C(F)(F)F)cc2C(F)(F)F)c2ccc(F)cc2)nn1 ?
Response given: 65.9
